- target.entity: T1, CRH (CT-Biotin) (human and mouse, biotin on the added C-terminal K (-K-Biotin))
- T1 construct: also called Peptide 4 (CRH-Biotin); C-terminally biotinylated corticotropin-releasing hormone
- T1 peptide: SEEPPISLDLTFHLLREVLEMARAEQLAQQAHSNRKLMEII
- experiment.notes: ELISA, C-terminally biotinylated CRH on streptavidin-coated plate
test.readout: pEC50
Notebook: values listed as pEC50 are -log10 of the concentration (mol/L).

binder="PR302331 (antibody, human IgG1, kappa, V domains shown, Mouse variable domains, expressed recombinantly with human IgG1 wildtype Fc; also called Series 9 mAb) VH: EVKLVESGGGLVKPGGSLKLSCAASGFTFSSYAMSWVRQSPEKRLEWVASIRSGGTTYYPDSVKGRFTISRDNARNILYLQMSSLRSEDTAIYYCTRGIDWGQGTLVTVSA VL: NIVMTQTPKFLLVSAGDRVTIACKASQSVNNDVAWYQQKPGQSPKLLIYYASNRYTGVPDRFTGSGYGTDFTFTISTVQAEDLAVYFCQQDYSSWTFGGGTKLEIKR" quantitative_readout=10.70

Now consider the entry below.
In one line, give reported pEC50 of the entry PR301806 (antibody, human IgG1, kappa, V domains shown, Mouse variable domains, expressed recombinantly with human IgG1 wildtype Fc; also called Series 6 mAb) VH: QVQLQQPGAELVKPGTSVKMSCKASGYTFTSYWMHWVKQRPGQGLEWIGDIYPGSDSTNYNEKFKSKASLTVDTSSSTAYMQLSSLTSEDSAVYYCARSITTTTFWYFDVWGAGTTVTVSS VL: DVLMTQTPLSLPVSLGDQASISCRSSQSFVYSNGNTYLQWYLQKPGQSPKLLIYKVSNRFSGVPDRFSGSGSGTDFTLKISRVEAEDLGVYYCFQGSHVPPTFGAGTKLELKR .
11.22
